Biological target: HCV NS3/4A protease genotype 1b (Hepatitis C virus genotype 1b, UniProt P26663)
Assay: HCV NS3/4A protease time-resolved fluorescence (TRF) assay, Ki against genotype 1b
Assay type: biochemical
Details: IC50 [gt-1b], NS3/4A protease TRF assay, genotype 1b enzyme 0.2 nM
Provide the reported IC50 of each item.
# include the unit after the value

[in] Given "CC(C)COC(=O)N[C@H]1CCCCC/C=C\[C@@H]2C[C@@]2(C(=O)NS(=O)(=O)C2(C)CC2)NC(=O)[C@@H]2C[C@]3(CCc4c(c(C(F)(F)F)nc5ccc(Cl)cc45)O3)CN2C1=O" , state its recorded IC50.
[out] 24 pM

[in] What value of IC50 has been recorded for this entry: "COc1ccc2nc(C)c3c(c2c1)CC[C@]1(C[C@H]2C(=O)N[C@]4(C(=O)NS(=O)(=O)C5(C)CC5)C[C@H]4/C=C\CCCCC[C@H](Nc4cccc(C)n4)C(=O)N2C1)O3"
[out] 57 pM

[in] Which IC50 value is on record for "COCC1(S(=O)(=O)NC(=O)[C@@]23C[C@H]2/C=C\CCCCC[C@H](NC(=O)OC2(C)CCC2)C(=O)N2C[C@@]4(CCc5c(c(C(F)(F)F)nc6ccc(OC)cc56)O4)C[C@H]2C(=O)N3)CC1" ?
[out] 7 pM

[in] Consider the molecule shown here: "Cc1ccc2nc(C(F)(F)F)c3c(c2c1)CC[C@]1(C[C@H]2C(=O)N[C@]4(C(=O)NS(=O)(=O)C5(C)CC5)C[C@H]4/C=C\CCCCC[C@H](NC(=O)OCC(C)C)C(=O)N2C1)O3" What is its recorded IC50?
[out] 15 pM
